Numbers sourced from the supplement of paper PMC10065799.

# measurement_target: Hck (UniProt P08631)
# Sequence (P08631 whole entry, looked up): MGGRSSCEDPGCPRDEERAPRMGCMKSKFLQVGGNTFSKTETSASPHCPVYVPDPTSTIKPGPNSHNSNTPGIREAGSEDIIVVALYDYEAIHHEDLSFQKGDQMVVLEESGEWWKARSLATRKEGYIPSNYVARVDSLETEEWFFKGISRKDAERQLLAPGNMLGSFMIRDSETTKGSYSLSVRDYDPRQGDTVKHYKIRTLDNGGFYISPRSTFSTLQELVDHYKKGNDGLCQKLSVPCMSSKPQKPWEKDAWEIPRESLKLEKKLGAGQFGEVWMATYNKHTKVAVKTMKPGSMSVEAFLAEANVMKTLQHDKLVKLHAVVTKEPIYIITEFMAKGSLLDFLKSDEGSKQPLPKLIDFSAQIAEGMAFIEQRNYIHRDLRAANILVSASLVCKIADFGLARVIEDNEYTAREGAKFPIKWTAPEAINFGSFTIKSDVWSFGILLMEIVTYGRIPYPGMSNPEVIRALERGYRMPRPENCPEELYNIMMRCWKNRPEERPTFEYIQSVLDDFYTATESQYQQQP
# protocol_summary: phosphorylation enrichment, bacterial display (enrichment ratio); higher = better substrate or ligand; peptides without Tyr show the background;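 further: 11-residue human phosphosite peptides and single-mutation variants displayed on the E. coli surface, counted by deep sequencing, each peptide's frequency after selection divided by its frequency in the unselected input library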;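 further: frequency after pTyr selection over input frequency; kinase dosed for 20-30% of maximal phosphorylation in three min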
Class (by phosphorylation enrichment) -- band 1 = under 0.5, band 2 = from 0.5 up to 0.7, band 3 = 0.7 and over

Example entries begin here.
{"polymer_sequence": "CTTIHYDYMCN [TP53_Y234_N235D]", "group_label": "band 2"}
{"polymer_sequence": "PIDLYYLMDLS [ITGB2_Y131]", "group_label": "band 3"}
{"polymer_sequence": "YMRGMYFRMTD [PLA2G6_Y541_K545T]", "group_label": "band 2"}

Category lookup for the sequence GQAPGYSFTAA [CYCS_Y47_YF]
band 1

Exercise: read the entry RGERPYGGGGG [FUS_Y526_R522G] and state which class it falls under.
band 1

State the band of RSRSPYSSRHS [CDK13_Y415]
band 2

Exam item: assign RLASVYTKRCS [CPT2_Y508_P504L] to the correct category.
band 2

State the class of the sequence shown: ATCKAYGQALA [TKT_Y321_R318C]
band 1

Kindly state the category for this sequence: NQDRTYFERVR [SPEN_Y632_S635R_YF]
band 3

Note: place this sequence into its band. Item: SHNELYFEAAE [VANGL1_Y344_E347A_YF]
band 2
